experiment: yeast display, Sf9 membrane polyspecificity reagent, FACS + sequencing; frameworks hold sequencing errors
Metric name: polyreactivity (PSR sort gate)

# example entries with known answers
[[record]]
construct_sequence = "QVQLVESGGGLVQAGGSLRLSCAASRFIFWSYAMGWYRQAPGKERELVAAISWRGGSTYYADSVKGRFTISRDNAKNTVYLQMNSLKPEDTAVYYCAAESYNGYDYWGQGTQVTVSS"
observed_measurement = "high polyreactivity"

[[record]]
construct_sequence = "QVQLVESGGGLVQAGGSLRLICAASGSTFDANAMGWYRQAPGKERELVAAITSNGGSTYYADSVKARFTISRDNAKNTVYLQMNSLKPEDTAVYYCATEQHTVQDYDFWGQGTQVTVSS"
observed_measurement = "low polyreactivity"

[[record]]
construct_sequence = "QVQLVESGGGLVQAGGSLRLSCAASGFTFASYAMGWYRQAPGKERELVAAITRRGGSTNYADSVKGRFTISRDNAKNTVFLQMNSLKPEDTAVYYCNALHGVWYPAYDYWGQGTQVTVSS"
observed_measurement = "low polyreactivity"

[[record]]
construct_sequence = "QVQLVESGGGLVQAGGSLRLSCAASGSIFRYYAMGWYRQAPGKERELVAAITASGGRTHYADSVKGRFTISRDNAKNTVYLQMNSLKLEDTAVYYCSADLYYAWYWKQHYDYWGQGTQVTVSS"
observed_measurement = "high polyreactivity"


Query: Please give the measured polyreactivity (PSR sort gate) for this sequence: `QVQLVESGGGLVQEGGSLRLSCAASGFTIFQYAMGWYRQAPGKERELVATITSAGSTNYADSVKGRFTISLDNAKNTVYLQMNSLIPEDTAVYYCNTKKLPYAEGYWGQGTQVSVSS`
Result: low polyreactivity

Query: Which polyreactivity (PSR sort gate) value is on record for `QVQLVESGGGLVQAGGSLRLSCAASGSIFYYYAMGWYRQAPGKERELVATISSGGGSTYYADSVKGRFTISRDNAKNTVYLQMNSLKPEDTAVYYCAKRRWRSYYDSWGQGTQVTVSS` ?
Result: low polyreactivity

Query: I would be grateful if you could share the reported polyreactivity (PSR sort gate) for `QVQLVESGGGLVQAGGSLRLTCADTGNIFVRNAMGWYRQAPGKERELVADISTGADTNYADSVKGRFTISRDNAKNTFYLQKNSLKPEDTAVYYCAAAAEVGEIGYWPMVYWGQVTQVTVSS` .
Result: high polyreactivity

Query: What does the data say about its polyreactivity (PSR sort gate)? Entry: `QVQLVESGGGLVQAGGSLRISCADSGSIFRRYAMGWYRQAPGKERELVAAISIGGGSTYYADSVKGRFTISRDNAKNTVYLLMTSLKPEDTAVYYCNKVEYDGAYDYWGQGTQVTVSS`
Result: low polyreactivity

Query: # polyreactivity (PSR sort gate) lookup, item `QVQLVESGGGLVQAGGSLRFSCADSGSIFVRYAMGWYRQAPGKERELVAAISVRGGRTYYADSVKGRFTISRDNAKNTVYLQMNSLKPEDTAVYYCAAQLYYYYTYVPPGGYWGQGTQVTVSS`
Result: high polyreactivity

Query: I'd like to know its polyreactivity (PSR sort gate). The sequence in question is `QVQLVESGGGLVQAGGSLRLSCAASGRTFIVYAMGWYRQAPGKERELVAAITTSLGRTYYADSVKGRFTISRDNAKNTVYLQMNSLKPEDTAVYYCAADRLDGYSEYYYWGQGTQVTVSS`
Result: low polyreactivity

Query: Can you look up the measured polyreactivity (PSR sort gate) of `QVQLVESGGGLVQAGGSLRLRCAASGSTFTYNTMGWYRQAPGKERELVAAINTTGNTYADSVKGRFTISRDNAKNTVYLQMNSLKPEDTAVYYCNTDYVPRRHDMDYWGQGTQVTLSS` for me?
Result: low polyreactivity
